experiment notes: PAMPA permeability
Assay type: in vitro ADME
condition label: Table 1
property measured: Papp (nm/s)

>  <molecule>
Cc1ccc(C#N)cc1-n1c(=N)n(C)c2cnc3ccc(-c4ccccc4O)cc3c21 [Compound 86]

>  <unit tag>
nm/s

>  <endpoint value>
79

$$$$
>  <molecule>
CNCc1cccc(-n2c(=N)n(C)c3cnc4ccc(-c5ccc(Cl)cc5)cc4c32)c1 [Compound 67]

>  <unit tag>
nm/s

>  <endpoint value>
481

$$$$
>  <molecule>
Cc1ccc(C#N)cc1-n1c(=N)n(C)c2cnc3ccc(-c4cccc(F)c4)cc3c21 [Compound 34]

>  <unit tag>
nm/s

>  <endpoint value>
8520

$$$$
>  <molecule>
Cc1cc(N2CCCCC2)c(C#N)cc1-n1c(=N)n(C)c2cnc3ccc(-c4ccc(Cl)cc4)cc3c21 [Compound 112]

>  <unit tag>
nm/s

>  <endpoint value>
12800

$$$$
>  <molecule>
Cc1ccc(C#N)cc1-n1c(=N)n(C)c2cnc3ccc(-c4ccc(F)c(F)c4)cc3c21 [Compound 43]

>  <unit tag>
nm/s

>  <endpoint value>
8370

$$$$
>  <molecule>
Cc1nc(N2CCOCC2)c(C#N)cc1-n1c(=N)n(C)c2cnc3ccc(-c4ccc(Cl)cc4)cc3c21 [Compound 21]

>  <unit tag>
nm/s

>  <endpoint value>
15600

$$$$
>  <molecule>
Cc1ccc(C#N)cc1-n1c(=N)n(C)c2cnc3ccc(-c4cccc(N)c4)cc3c21 [Compound 38]

>  <unit tag>
nm/s

>  <endpoint value>
4350

$$$$
>  <molecule>
Cn1c(=N)n(-c2ccccc2O)c2c3cc(-c4ccc(Cl)cc4)ccc3ncc21 [Compound 83]

>  <unit tag>
nm/s

>  <endpoint value>
8590

$$$$

(a) Cn1c(=N)n(-c2cccc(F)c2)c2c3cc(-c4ccc(Cl)cc4)ccc3ncc21 [Compound 78]
(b) COc1ccc(-c2ccc3ncc4c(c3c2)n(-c2cc(C#N)ccc2C)c(=N)n4C)cc1OC [Compound 41]
(c) Cc1ccc(C#N)cc1-n1/c(=N/C#N)n(C)c2cnc3ccc(-c4ccc(N)nc4)cc3c21 [Compound 4]
(d) Cc1cc(C#N)c(C#N)cc1-n1c(=N)n(C)c2cnc3ccc(-c4ccc(Cl)cc4)cc3c21 [Compound 135]
**Q:** Sort these molecules on Papp so the largest reading comes first. Give me the labels in the order the question wants.
**A:** b, a, d, c
(b: 9880 nm/s, a: 6290 nm/s, d: 3970 nm/s, c: 341 nm/s)

* * *

experiment notes: PAMPA permeability
Assay type: in vitro ADME
condition label: Table 1
property measured: Papp (×10⁻⁶ cm/s)

The cases that follow already have their Papp on record.
>  <compound>
Cc1ccc(C#N)cc1-n1c(=N)n(C)c2cnc3ccc(-c4cccc(Cl)c4)cc3c21 [Compound 33]

>  <property measured>
Papp

>  <endpoint value>
1820

$$$$
>  <compound>
Cc1ccc(C#N)cc1-n1c(=N)n(C)c2cnc3ccc(-c4ccc(OCCCN(C)C)nc4)cc3c21 [Compound 106]

>  <property measured>
Papp

>  <endpoint value>
1.2

$$$$
>  <compound>
Cc1ccc(C#N)cc1-n1c(=N)n(C)c2cnc3ccc(-c4ccc(F)c(O)c4)cc3c21 [Compound 39]

>  <property measured>
Papp

>  <endpoint value>
147

$$$$
>  <compound>
Cc1ccc(C#N)cc1-n1c(=N)n(C)c2cnc3ccc(-c4cccc(O)c4)cc3c21 [Compound 37]

>  <property measured>
Papp

>  <endpoint value>
10.3

$$$$
>  <compound>
Cc1ccc(C#N)cc1-n1c(=N)n(C)c2cnc3ccc(-c4cnc5ccccc5c4)cc3c21 [Compound 105]

>  <property measured>
Papp

>  <endpoint value>
1150

$$$$

(a) Cn1c(=N)n(-c2ccc(N3CCNCC3)c(C#N)c2)c2c3cc(-c4ccc(Cl)cc4)ccc3ncc21 [Compound 49]
(b) Cc1cc(N2CCN(C)CC2)c(C#N)cc1-n1c(=N)n(C)c2cnc3ccc(-c4ccc(Cl)cc4)cc3c21 [Compound 108]
**Q:** // which entry reports the smaller Papp, a or b ? Write down the label of the entry you select.
**A:** a
